Attribution: the supplement of paper PMC12645437

Assayed System: T1, CRBN, Q96SW2;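 further: pooled lentiviral library of zinc finger degron-EGFP fusions in mCherry-positive Jurkat cells, FACS-sorted after compound exposure, with degron abundance counted by next-generation sequencing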
T1 chain: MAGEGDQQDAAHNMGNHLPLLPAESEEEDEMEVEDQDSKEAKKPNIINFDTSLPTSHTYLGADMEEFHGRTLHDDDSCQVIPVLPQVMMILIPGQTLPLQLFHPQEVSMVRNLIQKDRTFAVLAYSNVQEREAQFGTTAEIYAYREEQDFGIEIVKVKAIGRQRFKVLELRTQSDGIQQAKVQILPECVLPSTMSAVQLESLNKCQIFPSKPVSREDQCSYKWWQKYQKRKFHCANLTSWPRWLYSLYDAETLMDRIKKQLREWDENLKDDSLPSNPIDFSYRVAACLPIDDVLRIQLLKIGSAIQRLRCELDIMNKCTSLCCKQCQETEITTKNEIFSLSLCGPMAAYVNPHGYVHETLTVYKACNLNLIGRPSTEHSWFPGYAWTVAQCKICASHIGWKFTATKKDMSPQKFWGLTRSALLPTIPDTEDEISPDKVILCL
Assay Overview: log2 fold change of degron read counts, EGFP-low vs EGFP+ sorted cells (limma voom), compound-induced degradation; higher = more compound-induced degradation of the degron-EGFP fusion; degrons are variants of IKZF1/3 zinc finger 2; compound dose not given here
Condition: Jurkat; 18 h; compound: compound 22 (5-morpholino-thalidomide)
Whole data set: some 8,300 sequences, median “log2 fold change of degron read counts, EGFP-low vs EGFP+ sorted cells (limma voom), compound-induced degradation” near -1.1, cut for the highest 2% near 3.2. What follows is part of a selection rich in the highest values, with near analogues and random picks from the rest.
Param threshold (2) applies to log2 fold change of degron read counts; output True when value >= threshold, False when value < threshold.

Completed entries (count: 3):
[[record]]
sequence_content = "FWCEVCGADFTQKGNLLRHIKL [46F_47W_49E_50V_52G_53A_54D_55F_67L_, Q9UKT9]"
class = "False"

[[record]]
sequence_content = "LFCPICGFGCTQKGNLLRHIKL [46L_47F_49P_50I_52G_53F_54G_55C_67L_, Q9UKT9]"
class = "True"

[[record]]
sequence_content = "FDCSVCGHPFTQKGNLLRHIKL [46F_47D_49S_50V_52G_53H_54P_55F_67L_, Q9UKT9]"
class = "False"


Exercise: Answer whether log2 fold change of degron read counts of FICNQCGACFTQKGNLLRHIKL [46F_47I_49N_50Q_52G_53A_54C_55F_67L_, Q9UKT9] is greater than or equal to 2.
Solution: False

Exercise: // repeat for LICEICGFVCTQKGNLLRHIKL [46L_47I_49E_50I_52G_53F_54V_55C_67L_, Q9UKT9] and report
Solution: False

Exercise: // repeat for LQCPICGFACTQKGNLLRHIKL [46L_47Q_49P_50I_52G_53F_54A_55C_67L_, Q9UKT9] and report
Solution: True

Exercise: // repeat for LGCPICGFACTQKGNLLRHIKL [46L_47G_49P_50I_52G_53F_54A_55C_67L_, Q9UKT9] and report
Solution: True

Exercise: // repeat for LLCPICGFACTQKGNLLRHIKL [46L_47L_49P_50I_52G_53F_54A_55C_67L_, Q9UKT9] and report
Solution: False

Exercise: // repeat for FTCEVCGAQFTQKGNLLRHIKL [46F_47T_49E_50V_52G_53A_54Q_55F_67L_, Q9UKT9] and report
Solution: True

Exercise: // repeat for LHCEICGFCCTQKGNLLRHIKL [46L_47H_49E_50I_52G_53F_54C_55C_67L_, Q9UKT9] and report
Solution: False

Exercise: // repeat for LMCPICGFACTQKGNLLRHIKL [46L_47M_49P_50I_52G_53F_54A_55C_67L_, Q9UKT9] and report
Solution: True

Exercise: // repeat for LRCPICGFGCTQKGNLLRHIKL [46L_47R_49P_50I_52G_53F_54G_55C_67L_, Q9UKT9] and report
Solution: True

Exercise: // repeat for FTCDVCGALFTQKGNLLRHIKL [46F_47T_49D_50V_52G_53A_54L_55F_67L_, Q9UKT9] and report
Solution: False

Exercise: // repeat for FDCPQCGAMFTQKGNLLRHIKL [46F_47D_49P_50Q_52G_53A_54M_55F_67L_, Q9UKT9] and report
Solution: False

Exercise: // repeat for FGCEVCGAQFTQKGNLLRHIKL [46F_47G_49E_50V_52G_53A_54Q_55F_67L_, Q9UKT9] and report
Solution: True
